Recorded below: IC50, system ErbB2 WT (Homo sapiens (Human)).
measure name: IC50 (nM)

molecule | measurement target | value unit | result
Cc1cc(Nc2ncnc3cnc(OCC(C)(C)O)nc23)ccc1Oc1ccc2c(c1)ncn2C [Example 476] | ErbB2 WT (Homo sapiens (Human)) | nM | 232
Cc1cc(Nc2ncnc3cnc(N4CC5COC(C5)C4)nc23)ccc1Oc1ccc2c(c1)ncn2C (stereo not drawn) [Example 67] | ErbB2 WT (Homo sapiens (Human)) | nM | 34.3
Cn1cnc2cc(Oc3ccc(Nc4ncnc5cnc(N6CCC7(CCOC7)C6)nc45)cc3Cl)ccc21 (stereo not drawn) [Example 443] | ErbB2 WT (Homo sapiens (Human)) | nM | 104
Cc1cc(Nc2ncnc3cnc(N4C[C@H]5CCS(=O)(=O)[C@H]5C4)nc23)ccc1Oc1ccc2c(c1)ncn2C (racemic) [Example 92] | ErbB2 WT (Homo sapiens (Human)) | nM | 18.9
Cc1cc(Nc2ncnc3cnc(O[C@H]4CNCC[C@H]4F)nc23)ccc1Oc1ccc2c(c1)ncn2C [Example 290] | ErbB2 WT (Homo sapiens (Human)) | nM | 601
CO[C@@H]1CN(c2ncc3ncnc(Nc4ccc(Oc5ccc6c(c5)ncn6C)c(C)c4)c3n2)C[C@H]1O (racemic) [Example 107] | ErbB2 WT (Homo sapiens (Human)) | nM | 15.5
Cc1c(Oc2ccn3ncnc3c2)ccc(Nc2ncnc3cnc(N4CC[C@](C)(O)C4)nc23)c1F [Example 307] | ErbB2 WT (Homo sapiens (Human)) | nM | 54.3
Cc1cc(Nc2ncnc3cnc(N4CCNC(=O)C4)nc23)ccc1Oc1ccc2c(c1)ncn2C [Example 198] | ErbB2 WT (Homo sapiens (Human)) | nM | 21.9
Cc1cc(Nc2ncnc3cnc(N4CCC(F)(F)CC4)nc23)ccc1Oc1ccc2c(c1)ncn2C [Example 236] | ErbB2 WT (Homo sapiens (Human)) | nM | 352
Cc1cc(Nc2ncnc3cnc(N4C[C@@H](O)C5(CC5)C4)nc23)ccc1Oc1ccc2c(c1)ncn2C [Example 211] | ErbB2 WT (Homo sapiens (Human)) | nM | 31
Cc1cc(Nc2ncnc3cnc(N4CC[C@H]4C(C)(C)O)nc23)ccc1Oc1ccn2ncnc2c1 [Example 370] | ErbB2 WT (Homo sapiens (Human)) | nM | 129
Cc1cc(Nc2ncnc3cnc(N4CC5(CCOC5)C4)nc23)ccc1Oc1ccn2ncnc2c1 [Example 373] | ErbB2 WT (Homo sapiens (Human)) | nM | 307
Cc1cc(Nc2ncnc3cnc(NCC4(O)COC4)nc23)ccc1Oc1ccc2c(c1)ncn2C [Example 319] | ErbB2 WT (Homo sapiens (Human)) | nM | 4.5
Cc1c(Oc2ccn3ncnc3c2)ccc(Nc2ncnc3cnc(N(C)CC(F)F)nc23)c1F [Example 317] | ErbB2 WT (Homo sapiens (Human)) | nM | 101
Cc1cc(Nc2ncnc3cnc(N4CCCC(OC(F)F)C4)nc23)ccc1Oc1ccc2c(c1)ncn2C (racemic) [Example 40] | ErbB2 WT (Homo sapiens (Human)) | nM | 145
Cc1cc(Nc2ncnc3cnc(N4CC[C@H](O)C4)nc23)ccc1Oc1ccc2c(c1)ncn2C [Example 174] | ErbB2 WT (Homo sapiens (Human)) | nM | 31.4
CN(CC1(O)CCC1)c1ncc2ncnc(Nc3ccc(Oc4ccn5ncnc5c4)c(Cl)c3)c2n1 [Example 329] | ErbB2 WT (Homo sapiens (Human)) | nM | 37.7
Cn1cnc2cc(Oc3ccc(Nc4ncnc5cnc(N6C7CCC6COC7)nc45)cc3Cl)ccc21 [Example 441] | ErbB2 WT (Homo sapiens (Human)) | nM | 67.2
Cc1cc(Nc2ncnc3cnc(N4CC[C@H](C)C4=O)nc23)ccc1Oc1ccc2c(c1)ncn2C [Example 250] | ErbB2 WT (Homo sapiens (Human)) | nM | 67.6
Cc1cc(Nc2ncnc3cnc(O[C@@H]4CNCC4(F)F)nc23)ccc1Oc1ccc2c(c1)ncn2C [Example 301] | ErbB2 WT (Homo sapiens (Human)) | nM | 241
COc1ncc2ncnc(Nc3ccc(Oc4ccc5c(c4)ncn5C)c(C)c3)c2n1 [Example 8, 2,2,2-trifluoroacetate] | ErbB2 WT (Homo sapiens (Human)) | nM | 69.7
CN1CCN(c2ncc3ncnc(Nc4ccc(Oc5ccc6c(c5)ncn6C)c(Cl)c4)c3n2)CC1 [Example 143, 2,2,2-trifluoroacetate] | ErbB2 WT (Homo sapiens (Human)) | nM | 50.7
Cc1cc(Nc2ncnc3cnc(N4[C@H]5CC[C@@H]4[C@H](O)C5)nc23)ccc1Oc1ccc2c(c1)ncn2C (racemic) [Example 104] | ErbB2 WT (Homo sapiens (Human)) | nM | 18.2
Cc1cc(Nc2ncnc3cnc(N4CC5CC(C4)O5)nc23)ccc1Oc1ccn2ncnc2c1 [Example 135] | ErbB2 WT (Homo sapiens (Human)) | nM | 45.7
Cn1cnc2cc(Oc3ccc(Nc4ncnc5cnc(N6CCOC(C)(C)C6)nc45)cc3Cl)ccc21 [Example 448] | ErbB2 WT (Homo sapiens (Human)) | nM | 143
Cc1cc(Nc2ncnc3cnc(N[C@H]4CNC[C@H]4F)nc23)ccc1Oc1ccc2c(c1)ncn2C [Example 276] | ErbB2 WT (Homo sapiens (Human)) | nM | 13.5
Cc1c(Oc2ccn3ncnc3c2)ccc(Nc2ncnc3cnc(N(C)CC4(O)CC4)nc23)c1F [Example 314] | ErbB2 WT (Homo sapiens (Human)) | nM | 88.1
CSc1ncc2ncnc(Nc3ccc(Oc4ccc5c(c4)ncn5C)c(C)c3)c2n1 [Example 1] | ErbB2 WT (Homo sapiens (Human)) | nM | 41.1
Cc1cc(Nc2ncnc3cnc(N4CC(C(F)F)C4)nc23)ccc1Oc1ccc2c(c1)ncn2C [Example 37] | ErbB2 WT (Homo sapiens (Human)) | nM | 393
Cc1cc(Nc2ncnc3cnc(N(C)[C@@H]4CCOC4)nc23)ccc1Oc1ccn2ncnc2c1 [Example 427] | ErbB2 WT (Homo sapiens (Human)) | nM | 43.1

----------
Target: ErbB2 WT (Homo sapiens (Human))
Sequence (P04626 23-1255): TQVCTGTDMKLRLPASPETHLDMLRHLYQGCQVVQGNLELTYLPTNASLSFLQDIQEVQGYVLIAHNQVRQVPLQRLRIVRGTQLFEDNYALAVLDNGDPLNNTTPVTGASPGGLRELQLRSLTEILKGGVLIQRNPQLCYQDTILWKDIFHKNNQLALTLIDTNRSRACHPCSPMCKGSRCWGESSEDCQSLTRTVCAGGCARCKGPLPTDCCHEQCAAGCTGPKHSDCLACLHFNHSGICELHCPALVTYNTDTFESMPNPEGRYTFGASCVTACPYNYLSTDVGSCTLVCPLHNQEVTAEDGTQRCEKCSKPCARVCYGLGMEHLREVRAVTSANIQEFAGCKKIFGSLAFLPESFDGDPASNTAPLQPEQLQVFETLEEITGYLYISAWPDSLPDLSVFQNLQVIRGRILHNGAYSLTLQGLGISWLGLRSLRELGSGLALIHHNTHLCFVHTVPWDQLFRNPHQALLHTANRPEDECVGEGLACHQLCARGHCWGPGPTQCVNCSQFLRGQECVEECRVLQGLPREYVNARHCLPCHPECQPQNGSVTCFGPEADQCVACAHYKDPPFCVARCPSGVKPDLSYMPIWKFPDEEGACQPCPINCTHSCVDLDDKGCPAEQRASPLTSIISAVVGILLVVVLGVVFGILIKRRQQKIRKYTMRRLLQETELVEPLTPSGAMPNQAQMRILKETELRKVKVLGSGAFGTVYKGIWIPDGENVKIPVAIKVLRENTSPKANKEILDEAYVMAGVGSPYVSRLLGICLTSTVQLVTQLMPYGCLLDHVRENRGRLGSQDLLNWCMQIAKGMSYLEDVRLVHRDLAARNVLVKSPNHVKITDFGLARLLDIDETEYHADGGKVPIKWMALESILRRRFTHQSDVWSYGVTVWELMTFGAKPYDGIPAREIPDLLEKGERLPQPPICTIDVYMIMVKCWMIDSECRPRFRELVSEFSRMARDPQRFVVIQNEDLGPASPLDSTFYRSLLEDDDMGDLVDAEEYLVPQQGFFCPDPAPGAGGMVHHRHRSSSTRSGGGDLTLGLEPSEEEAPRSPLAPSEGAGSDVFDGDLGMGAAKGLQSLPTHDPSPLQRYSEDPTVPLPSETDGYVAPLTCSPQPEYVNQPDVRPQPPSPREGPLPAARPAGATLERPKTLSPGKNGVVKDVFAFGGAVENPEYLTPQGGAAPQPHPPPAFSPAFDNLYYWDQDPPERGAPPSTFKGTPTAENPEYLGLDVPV

compound | value unit | IC50
CN(c1ncc2ncnc(Nc3ccc(Oc4ccn5ncnc5c4)c(Cl)c3)c2n1)[C@H]1CCOC1 | nM | 26.2
Cc1cc(Nc2ncnc3cnc(NC4CCC4(F)F)nc23)ccc1Oc1ccc2c(c1)ncn2C (stereo not shown) | nM | 317
Cc1cc(Nc2ncnc3cnc(N4C[C@@H]5C[C@H]4CO5)nc23)ccc1Oc1ccc2c(c1)ncn2C | nM | 38.8
Cc1cc(Nc2ncnc3cnc(N4CCN(C)[C@H](C)C4)nc23)ccc1Oc1ccn2ncnc2c1 | nM | 59.3
Cc1cc(Nc2ncnc3cnc(N4CC[C@@](C)(O)C4)nc23)ccc1Oc1ccn2ncnc2c1 | nM | 32.8
C[C@@H]1CN(c2ncc3ncnc(Nc4ccc(Oc5ccc6c(c5)ncn6C)c(Cl)c4)c3n2)CCO1 | nM | 115
COCCOC1CN(c2ncc3ncnc(Nc4ccc(Oc5ccc6c(c5)ncn6C)c(C)c4)c3n2)C1 | nM | 77.7
Cc1cc(Nc2ncnc3cnc(O[C@@H]4CNC[C@@H]4F)nc23)ccc1Oc1ccc2c(c1)ncn2C [Example 86] | nM | 301
Cc1cc(Nc2ncnc3cnc(N4CC5(C4)CC(O)(C(F)(F)F)C5)nc23)ccc1Oc1ccc2c(c1)ncn2C | nM | 45.7
Cc1cc(Nc2ncnc3cnc(N(C)C4COC4)nc23)ccc1Oc1ccn2ncnc2c1 | nM | 12
Cc1cc(Nc2ncnc3cnc(N(C)[C@H]4C[C@H](O)C4)nc23)ccc1Oc1ccc2c(c1)ncn2C | nM | 3.7
Cc1cc(Nc2ncnc3cnc(-c4ccccn4)nc23)ccc1Oc1ccc2c(c1)ncn2C | nM | 107
Clc1cc(Nc2ncnc3cnc(N4CCOCC4)nc23)ccc1Oc1ccn2ncnc2c1 | nM | 32.1
Cc1cc(Nc2ncnc3cnc(N4CC[C@@H](C#N)C4)nc23)ccc1Oc1ccc2c(c1)ncn2C | nM | 38.1
CN(CCC(C)(C)O)c1ncc2ncnc(Nc3ccc(Oc4ccn5ncnc5c4)c(Cl)c3)c2n1 | nM | 14.7
CC1(O)CN(c2ncc3ncnc(Nc4ccc(Oc5ccn6ncnc6c5)c(Cl)c4)c3n2)C1 | nM | 119

----------
Target: ErbB2 WT (Homo sapiens (Human))
pIC50: −log10 of the molar value.
measure name: pIC50

compound | measure name | result
Cc1cc(Nc2ncnc3cnc(N4CCC[C@@]5(CCO5)C4)nc23)ccc1Oc1ccc2c(c1)ncn2C [Example 386] | pIC50 | 7.23
Cc1cc(Nc2ncnc3cnc(N[C@@H]4CNCC4(F)F)nc23)ccc1Oc1ccc2c(c1)ncn2C [Example 297] | pIC50 | 7.40
Cc1cc(Nc2ncnc3cnc(N(C)CC(C)(C)C#N)nc23)ccc1Oc1ccc2c(c1)ncn2C [Example 205] | pIC50 | 6.98
Cc1cc(Nc2ncnc3cnc(N4CCOCC4)nc23)ccc1Oc1ccc2scnc2c1.O=C(O)C(F)(F)F [Example 82, 2,2,2-trifluoroacetate] | pIC50 | 6.69
Cc1c(Oc2ccn3ncnc3c2)ccc(Nc2ncnc3cnc(N(C)CC4(O)CCC4)nc23)c1F [Example 315] | pIC50 | 7.19
Cc1cc(Nc2ncnc3cnc(N4CC[Si](C)(C)CC4)nc23)ccc1Oc1ccc2c(c1)ncn2C [Example 474] | pIC50 | 6.14
Cc1cc(Nc2ncnc3cnc(N(C)[C@@H]4CN(C)C[C@@H]4F)nc23)ccc1Oc1ccc2c(c1)ncn2C [Example 305] | pIC50 | 7.69
Cc1cc(Nc2ncnc3cnc(N4CC5(CC(O)C5)C4)nc23)ccc1Oc1ccc2c(c1)ncn2C [Example 213] | pIC50 | 7.47
Cc1cc(Nc2ncnc3cnc(N4CCN[C@@H](C(F)(F)F)C4)nc23)ccc1Oc1ccc2c(c1)ncn2C [Example 182] | pIC50 | 7.46
Cn1cnc2cc(Oc3ccc(Nc4ncnc5cnc(N6CCN[C@H](C(F)(F)F)C6)nc45)cc3Cl)ccc21 [Example 445] | pIC50 | 7.19
Cc1cc(Nc2ncnc3cnc(N4CCN[C@H](C(F)(F)F)C4)nc23)ccc1Oc1ccc2c(c1)ncn2C [Example 172] | pIC50 | 7.45
Cc1c(Oc2ccn3ncnc3c2)ccc(Nc2ncnc3cnc(N(C)[C@H]4CN(C)C[C@H]4F)nc23)c1F [Example 320] | pIC50 | 7.44
Cc1cc(Nc2ncnc3cnc(NCC(F)F)nc23)ccc1Oc1cc(F)c2c(c1)ncn2C [Example 207] | pIC50 | 7.35
Cc1cc(Nc2ncnc3cnc(N4CCOCC4)nc23)ccc1Oc1ccn2ncnc2c1 [Example 412] | pIC50 | 7.15
Cn1cnc2cc(Oc3ccc(Nc4ncnc5cnc(N6CCOC7(CC7)C6)nc45)cc3Cl)ccc21 [Example 449] | pIC50 | 6.82

Just for reference, patent US11834453B2 is where these values come from.
